Hello, the source for this data is PubChem BioAssay (NCI), in case you need it.

System: RPMI-8226 leukemia
Assay: NCI tumour cell line growth inhibition, 48 h
METRIC: TGI (µM)
Hi! Could you send only the number? It should be in µM, unit omitted.

Examples from the recorded data:
{"columns": ["COMPOUND", "ASSAY VALUE"],
 "data": [
  ["COc1cccc(NC(=O)C(=O)C(C(=O)c2ccccc2F)C2OC(=O)c3ccccc32)c1 (stereo not given)", 96.1],
  ["C=CCOC(=O)C1=C(CCC[C@@H](C)O[Si](C)(C)C(C)(C)C)N=C(N)N2[C@H](CCO)CC[C@@H]12", 27.6],
  ["C=C(CN1CC2C[C@](C(=O)OC)(c3cc4ccccc4[nH]3)C1C(OC)C2OC)S(=O)(=O)c1ccccc1 (stereo not given in full)", 6.06]
]}

Would you kindly look at the next entry?
Request the reported TGI associated with `CCN(CC)CCNc1ccc2nnn3c4ccc(O)cc4c(=O)c1c23`
19.8
